- study_system: 3-dehydroquinate synthase (Escherichia coli K-12)
- Sequence (P07639 whole entry): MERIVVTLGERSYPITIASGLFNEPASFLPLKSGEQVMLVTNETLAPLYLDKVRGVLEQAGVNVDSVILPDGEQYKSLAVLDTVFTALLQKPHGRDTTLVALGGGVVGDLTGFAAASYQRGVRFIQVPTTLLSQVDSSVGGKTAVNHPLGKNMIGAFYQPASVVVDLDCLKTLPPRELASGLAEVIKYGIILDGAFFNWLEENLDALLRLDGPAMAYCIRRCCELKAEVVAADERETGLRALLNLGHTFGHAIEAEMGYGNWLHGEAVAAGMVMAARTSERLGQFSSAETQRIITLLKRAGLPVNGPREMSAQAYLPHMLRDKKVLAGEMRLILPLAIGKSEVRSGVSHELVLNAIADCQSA

compound: O=C(O)C1(O)CC(O)CC(CP(=O)(O)O)C1 (stereo unspecified)
u: nM
Ki: 540
